Target: T1, recombinant human FZD5-Fc chimera (R&D Systems, Catalog no. 1617-FZ) (human, UniProt Q13467 27-167)
T1 construct: used for selection and ELISA; Fc part of the bought chimera not given
T1 sequence: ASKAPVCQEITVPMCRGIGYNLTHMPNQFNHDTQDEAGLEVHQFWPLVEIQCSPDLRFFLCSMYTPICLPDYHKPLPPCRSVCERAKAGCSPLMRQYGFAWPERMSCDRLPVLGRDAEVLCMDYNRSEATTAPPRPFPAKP
Test: SPR, Frizzled-Fc chimera;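 further: binding targets are Fc fusions carrying an extracellular Frizzled fragment that contains the CRD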
experimental_readout: koff

| binder | koff |
| --- | --- |
| IgG-2916 (antibody, V domains shown) VH: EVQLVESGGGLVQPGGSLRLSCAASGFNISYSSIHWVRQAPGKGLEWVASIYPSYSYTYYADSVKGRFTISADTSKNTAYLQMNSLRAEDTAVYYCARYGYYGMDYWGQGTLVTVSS VL: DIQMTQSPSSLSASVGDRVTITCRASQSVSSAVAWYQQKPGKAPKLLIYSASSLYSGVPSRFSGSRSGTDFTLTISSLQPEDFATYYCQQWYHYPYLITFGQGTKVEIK | 1.3e-05 s⁻¹ |
| IgG-2921 (antibody, V domains shown) VH: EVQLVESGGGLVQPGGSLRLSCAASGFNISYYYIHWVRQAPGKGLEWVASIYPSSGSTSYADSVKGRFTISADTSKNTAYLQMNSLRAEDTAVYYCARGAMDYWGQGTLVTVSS VL: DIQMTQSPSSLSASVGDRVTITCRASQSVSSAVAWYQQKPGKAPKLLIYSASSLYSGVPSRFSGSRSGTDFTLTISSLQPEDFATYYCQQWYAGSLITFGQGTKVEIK | 9.81e-05 s⁻¹ |
| IgG-2920 (antibody, V domains shown) VH: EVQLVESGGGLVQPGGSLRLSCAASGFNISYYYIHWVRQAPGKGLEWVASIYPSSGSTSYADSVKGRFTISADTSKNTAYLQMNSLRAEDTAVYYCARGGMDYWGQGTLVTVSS VL: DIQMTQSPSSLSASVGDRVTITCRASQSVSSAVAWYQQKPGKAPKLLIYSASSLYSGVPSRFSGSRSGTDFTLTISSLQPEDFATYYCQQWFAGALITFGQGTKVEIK | 0.000317 s⁻¹ |
| IgG-2919 (antibody, V domains shown, human IgG1 heavy chain (hG1), human kappa light chain (hK)) VH: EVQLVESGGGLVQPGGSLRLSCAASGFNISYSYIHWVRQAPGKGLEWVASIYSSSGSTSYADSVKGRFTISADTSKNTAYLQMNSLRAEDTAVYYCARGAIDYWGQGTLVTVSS VL: DIQMTQSPSSLSASVGDRVTITCRASQSVSSAVAWYQQKPGKAPKLLIYSASSLYSGVPSRFSGSRSGTDFTLTISSLQPEDFATYYCQQWYSSGHVLITFGQGTKVEIKR | 8.06e-05 s⁻¹ |

Here is another binder to look at.
The measured koff associated with IgG-2910 (antibody, V domains shown) VH: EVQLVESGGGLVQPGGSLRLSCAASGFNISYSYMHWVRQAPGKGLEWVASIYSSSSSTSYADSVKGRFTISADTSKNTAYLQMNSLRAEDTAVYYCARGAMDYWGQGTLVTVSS VL: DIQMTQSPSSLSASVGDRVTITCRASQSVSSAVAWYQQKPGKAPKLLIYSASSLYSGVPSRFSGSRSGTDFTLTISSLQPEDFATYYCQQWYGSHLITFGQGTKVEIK reads 0.000174 s⁻¹
